# System: HepG2
# assay.comment: Cytotoxicity against human HepG2 cells assessed as reduction in cell growth after 3 days by MTT assay
# Assay type: functional, cell-based
# measurement.parameters: HepG2, 72 h
Entries and their measured IC50 follow.
Enter your answer as a number in nM; do not include the unit.

Example entries begin here.
# cpd.smiles, IC50 (nM)
records = [
    ("CN[C@H](C(=O)N[C@H](C(=O)N(C)[C@H](/C=C(\\C)C(=O)O)C(C)C)C(C)(C)C)C(C)(C)c1ccc2ccccc2c1", 1.9),
    ("CCOC(=O)/C(C)=C/[C@H](C(C)C)N(C)C(=O)[C@@H](NC(=O)[C@@H](NC)C(C)(C)c1coc2ccccc12)C(C)(C)C", 11),
    ("CCOC(=O)/C(C)=C/[C@H](C(C)C)N(C)C(=O)[C@@H](NC(=O)[C@H](NC)C(C)(C)c1coc2ccccc12)C(C)(C)C", 730),
]

// moving on: another record for IC50
Task item: Need IC50, item CCOC(=O)/C(C)=C/[C@H](C(C)C)N(C)C(=O)[C@@H](NC(=O)[C@H](NC)C(C)(C)c1ccc(Br)cc1)C(C)(C)C
Reply: 10
